Target: T1, ZFP SBS#705 (synthetic, UniProt P08047)
T1 chain: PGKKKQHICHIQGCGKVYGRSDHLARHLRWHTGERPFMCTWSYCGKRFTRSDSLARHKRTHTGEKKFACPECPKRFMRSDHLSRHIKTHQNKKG
Experiment: EMSA
Conditions: tags: MBP fusion
MEASURE NAME: Kd (nM)
One number for each entry, in nM.

So for GGGGTGGGGC (dsDNA) DNA 1: GGGGTGGGGC DNA 2: GCCCCACCCC , the logged Kd turned out to be 0.01
